Test system: Saccharomyces cerevisiae
Test Details: protein stability index of tFT-peptide fusion (C-terminal peptide) (PSI (0-1 scale)); higher = more stable (slower turnover)
Setup Conditions: genetic background: wild type; temperature: 30 C
Class Yes: protein stability index at least 0.7. Class No: protein stability index below 0.7.

Please review the entries below; each comes with its answer.
Seq: SWSLIFFGYFPF
Category Label: No
--
Seq: RKLKQGIVSKKK
Category Label: No
--
Seq: PPSPSNPNPLRP
Category Label: Yes
--
Seq: VFFVLIFLLFLF
Category Label: No
--
Seq: LALYPYIPDSPF
Category Label: No
--
Seq: YLPRPPPTTALL
Category Label: Yes
--
Seq: PLLPSLPPLLAP
Category Label: No
--
Seq: RPAGGPRGGEGV
Category Label: No

Query block: In plain terms: is recorded protein stability index at least 0.7 for SSQVELPVSVVW ?
Result block: No

Query block: # iterate: CDVIGLVRVKRG
Result block: Yes

Query block: Now try PPPRPDLTVGQP .
Result block: No

Query block: Now consider SPPPLRFPPPPP .
Result block: Yes

Query block: Okay, and GEERRGRCGEKQ ?
Result block: No

Query block: Same thing, different sequence: SIISRVLDAMAK
Result block: Yes

###

Tested on: Saccharomyces cerevisiae
Test Details: protein stability index of tFT-peptide fusion in deletion strain of DOA10 (PSI (0-1 scale)); higher = more stable (slower turnover)
Measured Endpoint: protein stability index
I only need the number, thanks.

Seq: RSLRVLLPKYFR
protein stability index: 0.676

Query block: Can you look up the measured protein stability index of RVFRLDAIYFRI for me?
Result block: 0.619

Query block: # repeat for CLVSLPRLLFFR
Result block: 0.664

Query block: Next entry: RSLRVLLPLYMR
Result block: 0.696

Query block: Can you check GLYTCSVGCWFR next?
Result block: 0.682

Query block: Would you mind doing RELRVLLPLYFR as well?
Result block: 0.684

###

Measured protein stability index accompanies every entry in the list below.
Test system: Saccharomyces cerevisiae
Test Details: protein stability index of tFT-peptide fusion (C-terminal peptide) (PSI (0-1 scale)); higher = more stable (slower turnover)
Setup Conditions: genetic background: wild type; temperature: 30 C
// no unit string in output, number only

Seq: PLPTSMNTHALV
Assayed System: Saccharomyces cerevisiae
protein stability index: 0.683

Query block: Fill in: protein stability index of PFLEPPYPLLRS is ___
Result block: 0.704

Query block: Could you do the same for AWGLKRSCRIKL , please?
Result block: 0.678

Query block: AVGRSVVCINRA , same question.
Result block: 0.686

###

Test system: Saccharomyces cerevisiae
Test Details: protein stability index of tFT-peptide fusion (C-terminal peptide) (PSI (0-1 scale)); higher = more stable (slower turnover)
Setup Conditions: genetic background: das1 deletion; temperature: 30 C
Listed below: protein stability index values for each entry.
Lab note: jot the number down without any unit.

Seq: DLLNSVVVQRWA [SHP1 C-terminal 12 aa]
protein stability index: 0.697

Seq: LDLVARTATLSN [NUP84 C-terminal 12 aa]
protein stability index: 0.695

Seq: CMKAVILYSEQM [ATE1 C-terminal 12 aa]
protein stability index: 0.675

Seq: MMTRENMDMGER [RRP3 C-terminal 12 aa]
protein stability index: 0.669

Seq: NRVPKWMKLSKK [UBX4 C-terminal 12 aa]
protein stability index: 0.676

Query block: Recorded protein stability index of NSDTIARIATVM [DAS1 C-terminal 12 aa] , please.
Result block: 0.685

Query block: Consider next the sequence FCESDSIKMYPT [FYV10 C-terminal 12 aa] in the same way.
Result block: 0.706

Query block: Same read-out for LKFLEEKFPHDK [AIM17 C-terminal 12 aa] ?
Result block: 0.708

Query block: Same read-out for AHQKEILHSVSN [YML6 C-terminal 12 aa] ?
Result block: 0.695

Query block: Now the sequence TEEMKDAEEMKQ [RIX7 C-terminal 12 aa]
Result block: 0.685

Query block: // repeat for TEDKNKALESAQ [VPS60 C-terminal 12 aa] and report
Result block: 0.702
